molecular target: SULT1B1 (Homo sapiens, UniProt O43704); construct: made in house; host or cells: Escherichia coli; assay: Inhibition of 3-OH-BaP sulfotransferase activity by OH-PCBs with cDNA-expressed SULT1B1; type: biochemical; conditions: 1.0 μM 3-OH-BaP; mean of duplicates; read-out: IC50 SULT1B1
Sequence (O43704 whole entry): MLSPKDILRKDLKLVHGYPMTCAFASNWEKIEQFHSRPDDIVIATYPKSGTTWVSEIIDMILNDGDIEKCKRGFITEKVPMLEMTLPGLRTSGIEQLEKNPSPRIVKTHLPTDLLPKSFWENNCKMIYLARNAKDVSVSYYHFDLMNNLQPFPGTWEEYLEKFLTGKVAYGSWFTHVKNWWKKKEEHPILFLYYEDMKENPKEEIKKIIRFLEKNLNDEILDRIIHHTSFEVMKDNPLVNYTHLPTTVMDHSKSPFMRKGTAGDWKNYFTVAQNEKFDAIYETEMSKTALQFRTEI
observed_property: pIC50
// scale note: pIC50 = -log10(conc_M); give the bare number

// recorded pIC50 for Oc1c(Cl)cc(-c2cccc(Cl)c2)cc1Cl : 4.32

// recorded pIC50 for Oc1ccc(-c2c(Cl)c(Cl)cc(Cl)c2Cl)cc1Cl : 4.06

// recorded pIC50 for Oc1ccc(Cl)cc1-c1ccc(Cl)c(Cl)c1 : 5.33

// recorded pIC50 for Oc1ccc(-c2cc(Cl)cc(Cl)c2)cc1Cl : 4.43

---

Provide the reported pIC50 of each item.
Molecular target: SULT1A1*1 (Homo sapiens, UniProt P50225)
Construct: made in house; host or cells: Escherichia coli
Assay: Inhibition of 3-OH-BaP sulfotransferase activity by OH-PCBs with cDNA-expressed SULT1A1*1
Format: biochemical
Details: 0.1 μM 3-OH-BaP; mean of duplicates; read-out: IC50 SULT1A1*1
Text: The expression of human SULT1A1*1, SULT1A3, SULT1B1, and SULT1E1 in Escherichia coli has been described previously ([Dajani et al. 1998]; [Wang et al. 1998]). […] We determined SULT activity with 3-OH-BaP as substrate by a fluorimetric assay of BaP-3-SO4 product formation, as described previously ([Wang et al. 2004]). […] We calculated the effects of OH-PCBs on 3-OH-BaP SULT activity as percentage inhibition compared with the controls without an inhibitor. […]
// scale note: pIC50 = -log10(conc_M); give the bare number

// recorded pIC50 for Oc1c(Cl)cc(-c2c(Cl)c(Cl)cc(Cl)c2Cl)cc1Cl [Compound C5, 4′-OH-CB165] : 5.59

// recorded pIC50 for Oc1c(Cl)cc(-c2cccc(Cl)c2)cc1Cl [Compound C2, 4-OH-CB36] : 5.51

// recorded pIC50 for Oc1c(Cl)cc(-c2cc(Cl)c(Cl)c(Cl)c2Cl)cc1Cl [Compound C4, 4′-OH-CB159] : 5.67

// recorded pIC50 for Oc1ccc(-c2cc(Cl)cc(Cl)c2)cc1Cl [Compound B2, 4′-OH-CB36] : 5.88

// recorded pIC50 for Oc1ccc(-c2c(Cl)cc(Cl)cc2Cl)cc1Cl [Compound B3, 4′-OH-CB69] : 5.94

// recorded pIC50 for Oc1ccc(-c2c(Cl)c(Cl)cc(Cl)c2Cl)cc1Cl [Compound B5, 4′-OH-CB112] : 5.93

// recorded pIC50 for Oc1c(Cl)cc(-c2cc(Cl)ccc2Cl)cc1Cl [Compound C6, 4′-OH-CB72] : 5.66

// recorded pIC50 for Oc1ccc(-c2ccc(Cl)c(Cl)c2)cc1Cl [Compound B1, 4′-OH-CB35] : 6.11

---

Provide the reported pIC50 of each item.
Target: SULT1A1*1 (Homo sapiens)
Construct: made in house; host or cells: Escherichia coli
Assay: Inhibition of 3-OH-BaP sulfotransferase activity by OH-PCBs with cDNA-expressed SULT1A1*1
Type: biochemical
Conditions: IC50 SULT1A1*1, 0.1 μM 3-OH-BaP; mean of duplicates
Description: The expression of human SULT1A1*1, SULT1A3, SULT1B1, and SULT1E1 in Escherichia coli has been described previously ([Dajani et al. 1998]; [Wang et al. 1998]). […] We determined SULT activity with 3-OH-BaP as substrate by a fluorimetric assay of BaP-3-SO4 product formation, as described previously ([Wang et al. 2004]). […] We calculated the effects of OH-PCBs on 3-OH-BaP SULT activity as percentage inhibition compared with the controls without an inhibitor. […]
// scale note: pIC50 = -log10(conc_M); give the bare number

// recorded pIC50 for Oc1c(Cl)cc(-c2ccc(Cl)c(Cl)c2)cc1Cl [Compound C1, 4′-OH-CB79] : 5.18

// recorded pIC50 for Oc1c(Cl)cc(-c2c(Cl)cc(Cl)cc2Cl)cc1Cl [Compound C3, 4′-OH-CB121] : 5.09

// recorded pIC50 for Oc1ccc(-c2cc(Cl)c(Cl)c(Cl)c2Cl)cc1Cl [Compound B4, 4′-OH-CB106] : 5.97
